assay: Inhibition of recombinant Plasmodium vivax HGXPRT expressed in Escherichia coli by spectrophotometric analysis
# reported Ki; entries follow

Nc1nc(O)c2ncn(C[C@H](CF)OCP(=O)(O)O)c2n1 : ≥ 300 µM
Nc1nc2c(ncn2C[C@@H](CF)OCCP(=O)(O)O)c(=O)[nH]1 : 3.4 µM
Nc1nc2c(ncn2C[C@H](CF)OCCP(=O)(O)O)c(=O)[nH]1 : 29 µM

Quick note, Ki for "O=c1[nH]cnc2c1ncn2C[C@H](CF)OCP(=O)(O)O" landed at ≥ 200 µM

Quick note, Ki for O=c1[nH]cnc2c1ncn2CC(CF)OCCP(=O)(O)O (racemic) landed at ≥ 100 µM

Quick note, Ki for "Nc1nc(O)c2ncn(C[C@@H](CF)OCP(=O)(O)O)c2n1" landed at ≥ 250 µM

Quick note, Ki for "O=c1[nH]cnc2c1ncn2C[C@@H](CF)OCP(=O)(O)O" landed at ≥ 250 µM

Quick note, Ki for Nc1nc2c(ncn2CC(CF)OCCP(=O)(O)O)c(=O)[nH]1 (racemic) landed at 7 µM

Quick note, Ki for "O=c1[nH]cnc2c1ncn2C[C@@H](CF)OCCP(=O)(O)O" landed at ≥ 300 µM

Quick note, Ki for "O=c1[nH]cnc2c1ncn2C[C@H](CF)OCCP(=O)(O)O" landed at ≥ 200 µM

----------
target: Hypoxanthine-guanine phosphoribosyltransferase (Homo sapiens); experiment: Inhibition of recombinant human HGPRT expressed in Escherichia coli Sphi606 cells by spectrophotometric analysis
Sequence (P00492 whole entry): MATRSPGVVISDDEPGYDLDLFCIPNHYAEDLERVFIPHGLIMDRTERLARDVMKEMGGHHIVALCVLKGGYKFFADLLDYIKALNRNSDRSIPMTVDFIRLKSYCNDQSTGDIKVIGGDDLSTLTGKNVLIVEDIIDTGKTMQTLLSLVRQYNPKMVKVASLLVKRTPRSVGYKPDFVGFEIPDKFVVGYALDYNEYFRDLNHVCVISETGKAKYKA
pKi: −log10 of the molar value.
# reported pKi; entries follow

Here's what some known entries look like.
O=c1[nH]cnc2c1ncn2C[C@H](CF)OCP(=O)(O)O : ≤ 3.70
Nc1nc(O)c2ncn(C[C@@H](CF)OCP(=O)(O)O)c2n1 : ≤ 3.60
Nc1nc2c(ncn2CC(CF)OCCP(=O)(O)O)c(=O)[nH]1 (racemic) : 5.43

Quick note, pKi for "Nc1nc(O)c2ncn(C[C@H](CF)OCP(=O)(O)O)c2n1" landed at ≤ 3.52
